test: protein stability index of a GFP-peptide fusion (GPS, HEK-293T) (PSI 1-6); higher = more stable;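 also: 24-mer peptide tiles fused after GFP, lentivirally expressed, FACS-sorted into six equal bins by GFP/DsRed ratio, decoded by Illumina sequencing, PSI is the read-weighted mean bin number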
condition_description: treatment: MLN4924 1 uM, 8 h; c terminus: a fixed tail appended
Recorded protein stability index by entry
measured_attribute: protein stability index

1) FKCNYCGKSFRQRPSLVIHLRIHT [ZNF449] : 3.35
2) EEPCSPGLLQDQGSGLSSRFEEPK [CBY2] : 5.29
3) TIEYLKRHNALLSKRLLALTSSDL [TMEM192] : 2.17
4) PDVVVRSFMTWLRSYIKLFQAPCQ [MED27] : 2.12
5) APNSLSAPTMLHNSSGDFSQAHST [TRAF3IP2] : 4.78
6) TVANDVMLRTGLGVIRMWADEGSR [NETO1] : 2.77
7) MAAPPKAPIRVRNLTIRAGALTGK [DMRTC1] : 3.73
8) SLRSIEQKYKLFQQQQLTFTAALE [SPACA9] : 2.73
9) RIYRMIKLGLGIDEDEVAAEEPNA [HSP90AB1] : 3.19
10) EPIPFWTFLSRILTGLNYEAPKYH [NSDHL] : 2.76
11) CYSEEITVCGDLHGQLDDLIFIFY [PPEF2] : 2.65
12) EAVSDSTPFLTNHGAHKAEKKLFE [ZNF263] : 4.42
13) YDQQIWEKSIEQTQIKGLKNKPKK [PHTF1] : 5.17
14) KDGNTPLHVAARYGHELLINTLIT [ANKRD44] : 2.3
15) SAAVPAGQTYVDAGYEVDKIAQNL [CHIT1] : 4.61
16) VNVEMDAAPGVDLTRVLAEMREQY [KRT15] : 3.27
17) DGSGMPKTMQSEETRVWHRRDGKW [CAMK2D] : 4.59
18) VILNYPSPWDQEERPAQRDCSFPG [TRAF3IP2] : 3.15
19) GGCGGPRAWSQCGGGGLRAWSQRS [CPOX] : 2.56
20) ADEDDDRDVALQIHFTLIQAFCCE [GADD45A] : 2.36
21) PEAAAAQLRATAGSLILPPGPGGT [FCHO1] : 4.26
22) EIETWVREHCPENRERVVSLIEDL [ZNF449] : 4.01
23) FDECGITDDQLLALLPSLSHCSQL [PRAME] : 3.56
24) IMNEKCVVENAEKILGYLNTNVLS [SLC6A17] : 2.47
25) IAAGEVIQRPANAIKEMIENCLDA [MLH1] : 4.3
26) LTFMNEQGEYPPGTSTWQFNFKFN [CNOT7] : 2.39
27) GDEFSLREHELLCRADHGLLLERA [ISL2] : 3.65
28) LCRRLNTLNKCAVMKLEISPHRKR [DLC1] : 2.85
29) EMYQVSRLQHICELFIITQLQSMP [RHOBTB3] : 2.16
30) APRTSSCAERLQSEEQVSKNLFGP [FCHO1] : 4.17
31) KDVSRCVAERKYTQEQARKEFQQV [SMOC2] : 4.51
32) KLRAMKELSEAAEAQHGPHSAVAR [STX11] : 4.6
33) SKAPGSCDPGTDPCPEDASTPRPP [TLE6] : 5.45
34) QGEICLCTSRIFVQKSIYSEFLKR [ALDH8A1] : 2.06

---

test: protein stability index of a GFP-peptide fusion (GPS, HEK-293T) (PSI 1-6); higher = more stable
condition_description: treatment: MLN4924 1 uM, 8 h; c terminus: a fixed tail appended
Returns one of Condition met or Condition not met; Condition met when protein stability index is >= 4.

1. SDLFSLAEEYEDSSTKPPKSRRKA [INTS3] : Condition met
2. INDEMQAKGIPQRAPPKRKRKRVK [PCMTD1] : Condition met
3. PEVEVQVKRRRTASLSNQECQLYP [SNURF] : Condition met
4. DLMKRLRFALIPAPELVERVQSVD [KLHL14] : Condition not met
5. TSCAGNLPSRPPPLLSPLLASRNP [RSPH3] : Condition not met
6. IIYKQTKGGVQNFNKDLVQDCGFE [CEP70] : Condition not met
7. GPHPKSKIENGYPLHAPEAYFPYF [CDC14A] : Condition not met
8. ITGLPLDNPSVLSGPMQAALQAAA [SMG5] : Condition not met
9. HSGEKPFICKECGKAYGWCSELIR [ZNF232] : Condition not met
10. PVPILEKLPLQIDCLAAWEEWLLV [VPS39] : Condition not met
11. EVSQHIKMRMGGRVDFEEFVELIG [CABP4] : Condition not met
12. RQFLPEEFMKTLEKTGPQLTSRIK [DENND6A] : Condition not met
13. REKEDYLHLKRQPKRRWLFWNSPS [RHOBTB2] : Condition not met
14. KEKQSRDFQGRILSVDPEEEREEG [RHOBTB1] : Condition met
15. WENRHEGVFKFLRSEAVAQLWGQK [ELF3] : Condition not met
16. ITTDNLQCRERREHPNLVRDHVET [TEKT4] : Condition met
17. LESSYNDEMLSYLPGGTTGLQLPS [TFE3] : Condition not met
18. SQHRRIHSGEKPFICKECGKAYGW [ZNF232] : Condition not met
19. AGGDVPHKTHQAPASASSLPGTGA [DYRK1B] : Condition met
20. TNDRTASQGQWGRAWEVDWFSLAS [DHCR7] : Condition not met
21. DRADYYLEEFKENAYKDLAWKHGN [PCMTD2] : Condition not met
22. PVTQIGFEAPPLQGQAAAPASGSG [TRIM55] : Condition met
23. KIYAYPSNITSETGFRTISSLEEI [TMEM192] : Condition not met
24. ETLLKVDLENRCQSLTEDLEFRKS [LMNB1] : Condition met
25. FEWTDSPNTAVSVHVSESSDDDEE [ACBD3] : Condition met
26. SRILKKTVYNEMDKNRCELLSFLL [EDNRA] : Condition not met
27. WHTIAPMGTRRKHLGCAVYQDMIY [KLHL20] : Condition not met
28. PPHREGEAAGGDHETESTSDKETD [CDS1] : Condition met
29. RRQLEACQRERAFSVKFEVQAPRW [OAS1] : Condition not met
30. PDCLRACQEQIEALLESSLRQAQQ [CCND1] : Condition not met
31. SGSAGQYGSDQQHHLGSGSGAGGT [MYOZ1] : Condition met
32. VCGHTLCESCVDLLFVRGAGNCPE [MNAT1] : Condition not met
33. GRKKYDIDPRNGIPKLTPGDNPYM [SPATS1] : Condition not met
34. EARICRLLKHPNIVRLHDSISEEG [CAMK2D] : Condition not met
35. YSHEVSLTADSRKSHLIFPQPNYA [PCDHGA10] : Condition not met
36. VRVRQDSGAEGHSHSCYHDTRSGF [TRIM35] : Condition not met
37. CGCGSFCRLGYGCGYEGCRYGCGH [KRTAP19-2] : Condition not met
38. ISAHKPLLISSCDWMAAMFGGPFV [RHOBTB2] : Condition not met

---

test: protein stability index of a GFP-peptide fusion (GPS, HEK-293T) (PSI 1-6); higher = more stable
condition_description: treatment: MLN4924 1 uM, 8 h; c terminus: a fixed tail appended
Returns one of Met or Not met; Met when protein stability index is >= 4.

1) GKDVATQILEGELFDFDLEVKPVL [RSPH3] : Not met
2) DVAISANIADIEEKRGFTSHFVFV [NCF4] : Not met
3) ESFLAWKKRKRQEKIDKLEQDMER [ZC3H15] : Met
4) HGAHKHHPIEEAAEEHREKLLKQM [TRIM43] : Met
5) EFFLEQTKKKGVKRPARLHTKPSQ [NOP53] : Not met
6) HPVNPPYYIPLVELVPHPETAPTT [CRYL1] : Not met
7) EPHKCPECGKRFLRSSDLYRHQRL [ZNF449] : Met
8) ESWDEEDKRNYPSLELDKMAHGYG [CHGB] : Met
9) PGSQTAVKNSNRYDVEMTDELVGL [FBXO34] : Met
10) VPQDPDLEEEEEEEDLVLTCEDDE [ZBTB22] : Met
11) LLLERAAAGSPRSPGPLPGARGLH [ISL2] : Not met
12) QKLEREARICRLLKHPNIVRLHDS [CAMK2A] : Not met
13) LRIRSVEGRKKAFSTCGSHLTVVA [OR3A1] : Not met
14) IFAGVHDEKAKPRDRQQAPGLGQE [TLE6] : Met
15) GYQLSDHTVGVLFNNGAHMSLLPD [PLK2] : Not met
16) IKVEQATKPSFESGRRGPPPPPRS [RBMX] : Met
17) WFPPAIMGVVSLVFLIIYYLDPSV [ARL6IP1] : Not met
18) LRSAGVEQLMYIKEDLIIPHHHSF [FAM50A] : Not met
19) HRLKLRLAIQEMVSLTSPSAPPTS [PPFIA4] : Not met
20) AEDGGAYLATAKVLITVEDVNDNS [PCDHGA10] : Met
21) SGDPPLSSNVSLSLFVLDQNDNAP [PCDHGA10] : Not met
22) EMPTQPGKPLIPPMNRRNILVMKH [NETO1] : Not met
23) ENRLSVFFSVIFMTVGILSNSLAI [PTGFR] : Not met
24) TPAFMFRLDASTSHQNLRVDDLSV [FSD1] : Not met
25) LKERYQKIGDTKRNTPIEALCENF [CSNK1G1] : Not met
26) NTQTEELNQQVVSSSEQLQCCQTE [KRT36] : Met
27) NLQDTLEAASFLQILPVLDFCKVF [KLHL13] : Not met
28) AEALGKLLQQNKSIQSLTLEWNSL [LRRC45] : Not met
29) ASQSLGSPMYFFLASLSFIDTVYS [OR4A15] : Not met
30) VAASPAPAGERRIYRHRIPSTICF [ZNF511] : Not met
31) LPDAGSGRQPALRPHVHKQTEKTT [ISL2] : Met
32) PTMHLESPALQVMGPAQEAPVAEA [ZNF449] : Met
33) EGDVCGVEPPGPGDTVVQGDLQET [PBXIP1] : Met
34) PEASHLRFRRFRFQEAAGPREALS [ZNF263] : Not met
35) GARQISYSIPEELEKGSFVGNISK [PCDHGA10] : Met
36) ELAELEDALRNLKCGSGARGGDGE [TRADD] : Met
